Listed here: molecules with reported IC50 for PC-3 cells.
A number alone suffices; assume µM.

Answered examples (10):
molecule	IC50 / µM
CC1=C(/C=C/C(=O)/C=C/c2ccc([N+](=O)[O-])cc2)C(C)(C)CCC1O (racemic)	15
CC1=C(/C=C/C(=O)/C=C/c2cc(C(F)(F)F)ccc2C(F)(F)F)C(C)(C)CCC1O (racemic)	1.9
CC1=CCCC(C)(C)C1/C=C/C(=O)/C=C/c1ccccc1F (racemic)	4.8
COc1ccc(/C=C/C(=O)/C=C/C2=C(C)CCCC2(C)C)cc1OC	42
CC1=C(/C=C/C(=O)/C=C/c2cc(C(F)(F)F)cc(C(F)(F)F)c2)C(C)(C)CCC1	7.2
CC1=CCCC(C)(C)C1/C=C/C(=O)/C=C/c1ccc(C(F)(F)F)cc1 (racemic)	7.9
CC1=CCCC(C)(C)C1/C=C/C(=O)/C=C/c1ccccc1C(F)(F)F (racemic)	19
CC1=C(/C=C/C(=O)/C=C/c2ccccc2F)C(C)(C)CCC1	22.1
CC1=C(/C=C/C(=O)/C=C/c2cccc(F)c2)C(C)(C)CCC1O (racemic)	16
CC1=CCCC(C)(C)C1/C=C/C(=O)/C=C/c1cccc(C)c1 (racemic)	5.9

QUERY: Name the recorded IC50 for CC1=C(/C=C/C(=O)/C=C/c2ccc(C(F)(F)F)cc2)C(C)(C)CCC1O (racemic) .
RESULT: 10.2

QUERY: Name the recorded IC50 for CC1=C(/C=C/C(=O)/C=C/c2ccc(F)cc2)C(C)(C)CCC1O (racemic) .
RESULT: 6.2

QUERY: Name the recorded IC50 for CC1=C(/C=C/C(=O)/C=C/c2ccc(F)cc2)C(C)(C)CCC1 .
RESULT: 25.8

QUERY: Name the recorded IC50 for CC1=C(/C=C/C(=O)/C=C/c2cc(F)cc(C(F)(F)F)c2)C(C)(C)CCC1O (racemic) .
RESULT: 3

QUERY: Name the recorded IC50 for CC1=C(/C=C/C(=O)/C=C/c2ccc(C(F)(F)F)cc2)C(C)(C)CCC1 .
RESULT: 12
